# Test Target: UniProt:P01116
# Sequence (P01116 whole entry): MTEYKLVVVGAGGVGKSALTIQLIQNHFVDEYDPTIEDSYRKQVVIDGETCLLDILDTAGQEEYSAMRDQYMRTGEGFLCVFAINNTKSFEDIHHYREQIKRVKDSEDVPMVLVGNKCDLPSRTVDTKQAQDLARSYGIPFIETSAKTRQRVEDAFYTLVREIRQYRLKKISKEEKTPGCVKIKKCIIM
# Test Description: Binding to KRAS by surface plasmon resonance (SPR), Single Cycle Kinetics
# Settings: SPR Single Cycle Kinetics, GDP-bound KRAS wild-type protein, 1:1 binding model; read-out: KRAS KD
Where a SMILES comes first, the peptide text is derived from it. Bridges are numbered along the chain shown (N, C = ends). [ ]: non-standard residue; d: D form. The star is where a group is joined. hPhe(3-Cl-4-CF3) = N[C@@H](CCc1ccc(C(F)(F)F)c(Cl)c1)C(=O)O; NPrPhe(4-CF3) = CCCN[C@@H](Cc1ccc(C(F)(F)F)cc1)C(=O)O; NMeAbu(4,4,4-F3) = CN[C@@H](CC(F)(F)F)C(=O)O; NMeGly(cPent) = CN[C@H](C(=O)O)C1CCCC1; NMeD = CN[C@@H](CC(=O)O)C(=O)O; Morpholide = C1CN(*)CCO1; NMeA = CN[C@@H](C)C(=O)O; Ac5c = NC1(C(=O)O)CCCC1; Aze = O=C(O)[C@@H]1CCN1; Sar = CNCC(=O)O
Metric Name: pKd
Answers are plain numbers, as −log10 of the molar value.

## Task So what's the measured pKd for this one? CCCN1C(=O)[C@@H]2CCN2C(=O)[C@H](C)N(C)C(=O)[C@H]([C@@H](C)CC)NC(=O)[C@H](CC(F)(F)F)N(C)C(=O)C[C@@H](C(=O)N2CCOCC2)N(C)C(=O)[C@H](C2CCCC2)N(C)C(=O)C2(CCCC2)NC(=O)[C@@H]2CCCN2C(=O)[C@H](CCc2ccc(C(F)(F)F)c(Cl)c2)NC(=O)CN(C)C(=O)[C@@H]1Cc1ccc(C(F)(F)F)cc1 [PP0191] ([NMeAbu(4,4,4-F3)]I[NMeA][Aze][NPrPhe(4-CF3)][Sar][hPhe(3-Cl-4-CF3)]P[Ac5c][NMeGly(cPent)][NMeD]-Morpholide; lactam N-11)
## Result 9.85
